B1: DVL3 (parent)
chain: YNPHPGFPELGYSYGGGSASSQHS

Variants of: B1
Assay: protein stability index of a GFP-peptide fusion (GPS, HEK-293T) (PSI 1-6); higher = more stable;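 further: lentivirally expressed fusions sorted by FACS into six bins by GFP to DsRed ratio, PSI derived from sequencing read proportions per bin multiplied by bin number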
Settings: c terminus: a fixed tail appended
Property Label: protein stability index
// return a plain number; no unit text

Query block: I have this variant here, Y1C , and I need its recorded protein stability index.
Result block: 2.33

Query block: I have this variant here, G15P , and I need its recorded protein stability index.
Result block: 2.9

Query block: I have this variant here, G17T , and I need its recorded protein stability index.
Result block: 2.85

Query block: I have this variant here, G11S , and I need its recorded protein stability index.
Result block: 2.71

Query block: I have this variant here, N2F , and I need its recorded protein stability index.
Result block: 2.32

Query block: I have this variant here, H23P , and I need its recorded protein stability index.
Result block: 2.79

Query block: I have this variant here, A19L , and I need its recorded protein stability index.
Result block: 2.17

Query block: I have this variant here, P8Q , and I need its recorded protein stability index.
Result block: 2.67

Query block: I have this variant here, G6E , and I need its recorded protein stability index.
Result block: 3.84

Query block: I have this variant here, Q22E , and I need its recorded protein stability index.
Result block: 2.85

Query block: I have this variant here, S24K , and I need its recorded protein stability index.
Result block: 2.76

Query block: I have this variant here, G11H , and I need its recorded protein stability index.
Result block: 2.46

Query block: I have this variant here, Y1D , and I need its recorded protein stability index.
Result block: 4.18

Query block: I have this variant here, Y1P , and I need its recorded protein stability index.
Result block: 4.24

Query block: I have this variant here, S18G , and I need its recorded protein stability index.
Result block: 2.68

Query block: I have this variant here, S24L , and I need its recorded protein stability index.
Result block: 2.62

Query block: I have this variant here, S24A , and I need its recorded protein stability index.
Result block: 2.33

Query block: I have this variant here, G15T , and I need its recorded protein stability index.
Result block: 3.05

Query block: I have this variant here, S18F , and I need its recorded protein stability index.
Result block: 2.58

Query block: I have this variant here, F7G , and I need its recorded protein stability index.
Result block: 3

Query block: I have this variant here, F7E , and I need its recorded protein stability index.
Result block: 2.7

Query block: I have this variant here, S13G , and I need its recorded protein stability index.
Result block: 2.55

Query block: I have this variant here, P8E , and I need its recorded protein stability index.
Result block: 3.16

Query block: I have this variant here, Q22W , and I need its recorded protein stability index.
Result block: 2.06

Query block: I have this variant here, N2Y , and I need its recorded protein stability index.
Result block: 2.87

Query block: I have this variant here, S18L , and I need its recorded protein stability index.
Result block: 1.83

Query block: I have this variant here, S20A , and I need its recorded protein stability index.
Result block: 3.01

Query block: I have this variant here, H4S , and I need its recorded protein stability index.
Result block: 2.1

Query block: I have this variant here, P5K , and I need its recorded protein stability index.
Result block: 2.31

Query block: I have this variant here, G17D , and I need its recorded protein stability index.
Result block: 2.72

Query block: I have this variant here, H23Y , and I need its recorded protein stability index.
Result block: 2.92

Query block: I have this variant here, G16T , and I need its recorded protein stability index.
Result block: 2.57

Query block: I have this variant here, Q22R , and I need its recorded protein stability index.
Result block: 2.58

Query block: I have this variant here, G15S , and I need its recorded protein stability index.
Result block: 2.86

Query block: I have this variant here, Q22H , and I need its recorded protein stability index.
Result block: 2.73

Query block: I have this variant here, G6Q , and I need its recorded protein stability index.
Result block: 3.44

Query block: I have this variant here, Y14C , and I need its recorded protein stability index.
Result block: 3.1

Query block: I have this variant here, G16D , and I need its recorded protein stability index.
Result block: 3.4

Query block: I have this variant here, E9K , and I need its recorded protein stability index.
Result block: 1.8

Query block: I have this variant here, F7C , and I need its recorded protein stability index.
Result block: 2.85

Query block: I have this variant here, H23A , and I need its recorded protein stability index.
Result block: 2.62

Query block: I have this variant here, S18D , and I need its recorded protein stability index.
Result block: 2.85

Query block: I have this variant here, G16P , and I need its recorded protein stability index.
Result block: 2.74

Query block: I have this variant here, Y14A , and I need its recorded protein stability index.
Result block: 3.77

Query block: I have this variant here, N2I , and I need its recorded protein stability index.
Result block: 2.37

Query block: I have this variant here, G11Q , and I need its recorded protein stability index.
Result block: 3.29

Query block: I have this variant here, S21K , and I need its recorded protein stability index.
Result block: 2.54

Query block: I have this variant here, E9D , and I need its recorded protein stability index.
Result block: 2.11

Query block: I have this variant here, S18Q , and I need its recorded protein stability index.
Result block: 2.92

Query block: I have this variant here, N2T , and I need its recorded protein stability index.
Result block: 2.23

Query block: I have this variant here, Y12A , and I need its recorded protein stability index.
Result block: 2.87

Query block: I have this variant here, P8S , and I need its recorded protein stability index.
Result block: 2.73

Query block: I have this variant here, H4W , and I need its recorded protein stability index.
Result block: 2.44

Query block: I have this variant here, H23S , and I need its recorded protein stability index.
Result block: 2.62

Query block: I have this variant here, P3W , and I need its recorded protein stability index.
Result block: 2.51

Query block: I have this variant here, Y12G , and I need its recorded protein stability index.
Result block: 3.51

Query block: I have this variant here, G17V , and I need its recorded protein stability index.
Result block: 1.63

Query block: I have this variant here, L10A , and I need its recorded protein stability index.
Result block: 3.17

Query block: I have this variant here, G11A , and I need its recorded protein stability index.
Result block: 2.76

Query block: I have this variant here, H4F , and I need its recorded protein stability index.
Result block: 2.16

Query block: I have this variant here, S20M , and I need its recorded protein stability index.
Result block: 2.46

Query block: I have this variant here, S20K , and I need its recorded protein stability index.
Result block: 2.65

Query block: I have this variant here, P3E , and I need its recorded protein stability index.
Result block: 2.75

Query block: I have this variant here, S13W , and I need its recorded protein stability index.
Result block: 2.53

Query block: I have this variant here, Y14R , and I need its recorded protein stability index.
Result block: 3.05

Query block: I have this variant here, S13Y , and I need its recorded protein stability index.
Result block: 2.19

Query block: I have this variant here, P8H , and I need its recorded protein stability index.
Result block: 2.38

Query block: I have this variant here, P3Q , and I need its recorded protein stability index.
Result block: 3.05

Query block: I have this variant here, H4M , and I need its recorded protein stability index.
Result block: 2.69

Query block: I have this variant here, S20E , and I need its recorded protein stability index.
Result block: 2.95

Query block: I have this variant here, G16R , and I need its recorded protein stability index.
Result block: 2.63

Query block: I have this variant here, P3R , and I need its recorded protein stability index.
Result block: 3.17

Query block: I have this variant here, P8W , and I need its recorded protein stability index.
Result block: 2.48

Query block: I have this variant here, P3L , and I need its recorded protein stability index.
Result block: 3.46

Query block: I have this variant here, Y1L , and I need its recorded protein stability index.
Result block: 3.88

Query block: I have this variant here, G17M , and I need its recorded protein stability index.
Result block: 2.25

Query block: I have this variant here, Q22Y , and I need its recorded protein stability index.
Result block: 2.4
